Target: CIB1 and αIIb interaction (CIB1-GST : F-αIIb peptide) (Homo sapiens)
Construct: made in house; host or cells: BL-21 plus RIL cells (E. coli)
Sequence (Q99828 1-191): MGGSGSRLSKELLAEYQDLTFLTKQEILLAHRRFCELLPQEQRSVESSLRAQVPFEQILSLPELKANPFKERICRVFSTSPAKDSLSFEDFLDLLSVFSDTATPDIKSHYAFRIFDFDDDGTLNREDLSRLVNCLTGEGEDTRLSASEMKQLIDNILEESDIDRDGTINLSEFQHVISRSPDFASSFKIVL
Experiment: FP assay, 1536-well qHTS format (primary and confirmatory screen)
Format: binding
Settings: confirmatory screen; read-out: CONFIRMATORY SCREEN IC50
endpointName: IC50 (µM)

Cc1ccc(Cl)cc1NC(=O)c1nc[nH]c1C(=O)Nc1nc2ccccc2[nH]1 [NCGC00244259-01] ... 7.9
Cc1ccc(S(=O)(=O)Nc2cc([N+](=O)[O-])ccc2C(=O)Nc2nc(-c3ccccc3)cs2)cc1.O=C(O)C(F)(F)F [NCGC00262992-01] ... 5.6
O=C(Cc1ccc(Cl)c(Cl)c1)Nc1ccc(S(=O)(=O)Nc2nncs2)cc1.O=C(O)C(F)(F)F [NCGC00248349-02] ... 12.6
O=c1[nH]sc2cc(Cl)ccc12 [NCGC00262908-01, ticlatone, reference compound] ... 2.8
COc1ccccc1C(=O)c1no[n+]([O-])c1C(=O)c1ccccc1OC.O=C(O)C(F)(F)F [NCGC00351170-01] ... 5.6
Cn1sc(=O)n(Cc2ccccc2)c1=O [NCGC00165913-03] ... 7.9
Cc1ccccc1C(=O)c1no[n+]([O-])c1C(=O)c1ccccc1C.O=C(O)C(F)(F)F [NCGC00351166-01] ... 12.6
CC(C)NC(=S)N/N=C1\C(=O)Nc2ccccc21.O=C(O)C(F)(F)F [NCGC00229535-01] ... 2.8
CCc1ccc(S(=O)(=O)Nc2cnccc2C(=O)Nc2nc(-c3ccccc3)cs2)cc1.O=C(O)C(F)(F)F [NCGC00344909-01] ... 22.4
CC(C)=CCC[C@]1(C)C=Cc2c(O)c3c(c(CC=C(C)C)c2O1)O[C@]12C(=C[C@@H]4CC1C(C)(C)O[C@@]2(C/C=C(/C)C(=O)O)C4=O)C3=O [NCGC00485239-01] ... 8.9
Cc1cc(F)ccc1S(=O)(=O)Nc1cnccc1C(=O)Nc1nc(-c2ccccc2)cs1 [NCGC00345106-03] ... 28.2
CCN(CC)C(=S)SSC(=S)N(CC)CC [NCGC00016000-13, disulfiram, reference compound] ... 14.1
Cc1ccc(S(=O)(=O)Nc2nn3c(=O)c4ccccc4nc3s2)cc1C.O=C(O)C(F)(F)F [NCGC00187578-01] ... 11.2
N#Cc1cnc(NS(=O)(=O)c2ccc(NC(=O)Cc3ccc(Cl)c(Cl)c3)cc2)s1.O=C(O)C(F)(F)F [NCGC00250147-02] ... 6.3
O=Cc1c(-c2ccccc2)no[n+]1[O-] [NCGC00168371-01] ... 22.4
COc1ccc(CNC(=O)c2nc(S(=O)(=O)Cc3ccccc3)ncc2Cl)cc1.O=C(O)C(F)(F)F [NCGC00117170-03] ... 12.6
